Molecular target: AEA-DA lipid probe targets in Neuro2a cells (Mus musculus, UniProt Q8BMK4)
Sequence (Q8BMK4 whole entry): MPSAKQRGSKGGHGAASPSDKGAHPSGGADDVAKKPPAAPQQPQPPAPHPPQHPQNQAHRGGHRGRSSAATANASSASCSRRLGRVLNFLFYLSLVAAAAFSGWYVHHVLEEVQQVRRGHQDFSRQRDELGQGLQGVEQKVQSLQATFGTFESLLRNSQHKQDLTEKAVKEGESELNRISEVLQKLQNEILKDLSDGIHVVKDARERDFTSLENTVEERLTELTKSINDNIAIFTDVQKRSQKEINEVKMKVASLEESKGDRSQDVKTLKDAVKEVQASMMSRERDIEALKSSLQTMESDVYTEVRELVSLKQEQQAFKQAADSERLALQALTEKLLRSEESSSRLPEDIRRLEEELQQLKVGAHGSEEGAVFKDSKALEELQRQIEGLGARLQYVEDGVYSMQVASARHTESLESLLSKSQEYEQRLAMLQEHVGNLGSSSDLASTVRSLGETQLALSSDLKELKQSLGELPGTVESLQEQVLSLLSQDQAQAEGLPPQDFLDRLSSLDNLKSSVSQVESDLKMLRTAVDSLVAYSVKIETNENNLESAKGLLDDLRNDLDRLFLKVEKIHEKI
Conditions: competitor 25 μM

{"COMPOUND": "O=C(/C=C/c1cccnc1)NCCCCC1CCN(C(=O)c2ccccc2)CC1 [FK-866, reference compound]", "SILAC ratio, Ckap4": 1.1}
{"COMPOUND": "CN1CCN(C(=O)c2c(-c3ccccc3)c3cc([N+](=O)[O-])ccc3n2C)CC1 [KML110]", "SILAC ratio, Ckap4": 1.4}
{"COMPOUND": "CN1CCN(C(=O)c2[nH]c3ccc([N+](=O)[O-])cc3c2-c2ccccc2)CC1 [MJN228]", "SILAC ratio, Ckap4": 1.4}
{"COMPOUND": "C=CCN(C)CCCCCCOc1ccc(C(=O)c2ccc(Br)cc2)c(F)c1 [Ro 48-8071, reference compound]", "SILAC ratio, Ckap4": 1.1}

###

Reported SILAC ratio, Ccdc47 by item:
Target: AEA-DA lipid probe targets in Neuro2a cells (Mus musculus)
Sequence (Q9D024 21-483): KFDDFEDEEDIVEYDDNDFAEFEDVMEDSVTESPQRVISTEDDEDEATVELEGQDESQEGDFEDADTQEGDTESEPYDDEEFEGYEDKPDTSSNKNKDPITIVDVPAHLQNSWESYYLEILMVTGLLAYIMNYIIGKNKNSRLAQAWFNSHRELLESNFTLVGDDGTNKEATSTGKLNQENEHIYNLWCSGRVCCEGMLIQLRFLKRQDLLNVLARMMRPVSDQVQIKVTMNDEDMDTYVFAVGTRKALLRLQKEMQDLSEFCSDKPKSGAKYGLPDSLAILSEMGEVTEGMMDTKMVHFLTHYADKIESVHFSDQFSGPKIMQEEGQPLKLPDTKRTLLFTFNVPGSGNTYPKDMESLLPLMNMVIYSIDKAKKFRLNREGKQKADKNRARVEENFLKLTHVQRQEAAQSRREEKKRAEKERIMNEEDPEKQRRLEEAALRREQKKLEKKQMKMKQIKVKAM
Details: competitor 25 μM
EXPERIMENTAL_ENDPOINT: SILAC ratio, Ccdc47

{"COMPOUND": "C=CCN(C)CCCCCCOc1ccc(C(=O)c2ccc(Br)cc2)c(F)c1 [Ro 48-8071, reference compound]", "RESULT_VALUE": 1.4}
{"COMPOUND": "CN1CCN(C(=O)c2c(-c3ccccc3)c3cc([N+](=O)[O-])ccc3n2C)CC1 [KML110]", "RESULT_VALUE": 1.7}
{"COMPOUND": "O=C(/C=C/c1cccnc1)NCCCCC1CCN(C(=O)c2ccccc2)CC1 [FK-866, reference compound]", "RESULT_VALUE": 1.3}
{"COMPOUND": "CN1CCN(C(=O)c2[nH]c3ccc([N+](=O)[O-])cc3c2-c2ccccc2)CC1 [MJN228]", "RESULT_VALUE": 1.8}

###

Biological target: AEA-DA lipid probe targets in Neuro2a cells (Mus musculus, UniProt Q99JH8)
Sequence (Q99JH8 1-212): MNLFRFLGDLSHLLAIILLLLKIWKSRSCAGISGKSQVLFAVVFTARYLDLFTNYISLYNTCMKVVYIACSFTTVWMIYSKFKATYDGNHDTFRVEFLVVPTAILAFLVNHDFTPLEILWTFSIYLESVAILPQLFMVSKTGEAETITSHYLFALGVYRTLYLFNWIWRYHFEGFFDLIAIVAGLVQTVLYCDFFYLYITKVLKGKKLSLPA
Details: competitor 25 μM
Quick reference: SILAC ratio Kdelr1 of the listed items.

{"MOLECULE": "O=C(/C=C/c1cccnc1)NCCCCC1CCN(C(=O)c2ccccc2)CC1 [FK-866, reference compound]", "SILAC ratio Kdelr1": 1.1}
{"MOLECULE": "CN1CCN(C(=O)c2[nH]c3ccc([N+](=O)[O-])cc3c2-c2ccccc2)CC1 [MJN228]", "SILAC ratio Kdelr1": 1.2}
{"MOLECULE": "CN1CCN(C(=O)c2c(-c3ccccc3)c3cc([N+](=O)[O-])ccc3n2C)CC1 [KML110]", "SILAC ratio Kdelr1": 1.1}
{"MOLECULE": "C=CCN(C)CCCCCCOc1ccc(C(=O)c2ccc(Br)cc2)c(F)c1 [Ro 48-8071, reference compound]", "SILAC ratio Kdelr1": 1.0}

###

Parameter SILAC ratio, Sec22b: see the listing below.
Biological target: AEA-DA lipid probe targets in Neuro2a cells (Mus musculus, UniProt O08547)
Sequence (O08547 whole entry): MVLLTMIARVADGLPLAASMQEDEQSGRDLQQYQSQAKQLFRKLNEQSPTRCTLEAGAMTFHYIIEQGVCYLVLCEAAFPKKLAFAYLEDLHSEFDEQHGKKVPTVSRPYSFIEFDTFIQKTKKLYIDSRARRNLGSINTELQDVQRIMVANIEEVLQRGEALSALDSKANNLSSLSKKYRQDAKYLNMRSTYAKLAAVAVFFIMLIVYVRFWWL
Settings: competitor 25 μM

{"MOLECULE": "CN1CCN(C(=O)c2c(-c3ccccc3)c3cc([N+](=O)[O-])ccc3n2C)CC1", "SILAC ratio, Sec22b": 1.4}
{"MOLECULE": "O=C(/C=C/c1cccnc1)NCCCCC1CCN(C(=O)c2ccccc2)CC1 [FK-866, reference compound]", "SILAC ratio, Sec22b": 1.2}
{"MOLECULE": "CN1CCN(C(=O)c2[nH]c3ccc([N+](=O)[O-])cc3c2-c2ccccc2)CC1", "SILAC ratio, Sec22b": 1.6}
{"MOLECULE": "C=CCN(C)CCCCCCOc1ccc(C(=O)c2ccc(Br)cc2)c(F)c1 [Ro 48-8071, reference compound]", "SILAC ratio, Sec22b": 1.1}

###

Molecular target: AEA-DA lipid probe targets in Neuro2a cells (Mus musculus, UniProt Q8R127)
Sequence (Q8R127 1-429): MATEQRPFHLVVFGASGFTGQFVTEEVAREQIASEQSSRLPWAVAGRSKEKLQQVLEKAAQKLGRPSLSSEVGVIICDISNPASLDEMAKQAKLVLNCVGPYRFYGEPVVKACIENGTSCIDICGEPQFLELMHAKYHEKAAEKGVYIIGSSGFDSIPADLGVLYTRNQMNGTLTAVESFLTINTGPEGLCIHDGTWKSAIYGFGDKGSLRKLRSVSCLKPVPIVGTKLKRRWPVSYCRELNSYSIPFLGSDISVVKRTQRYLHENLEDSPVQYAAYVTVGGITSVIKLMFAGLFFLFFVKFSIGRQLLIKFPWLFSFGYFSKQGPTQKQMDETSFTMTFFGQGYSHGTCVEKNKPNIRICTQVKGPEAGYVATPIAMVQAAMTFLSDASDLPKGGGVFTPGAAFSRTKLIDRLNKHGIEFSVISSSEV
Settings: competitor 25 μM
Each entry below lists one item and its recorded SILAC ratio, Sccpdh value.

{"COMPOUND": "C=CCN(C)CCCCCCOc1ccc(C(=O)c2ccc(Br)cc2)c(F)c1 [Ro 48-8071, reference compound]", "SILAC ratio, Sccpdh": 1.6}
{"COMPOUND": "O=C(/C=C/c1cccnc1)NCCCCC1CCN(C(=O)c2ccccc2)CC1 [FK-866, reference compound]", "SILAC ratio, Sccpdh": 7.3}
{"COMPOUND": "CN1CCN(C(=O)c2[nH]c3ccc([N+](=O)[O-])cc3c2-c2ccccc2)CC1 [MJN228]", "SILAC ratio, Sccpdh": 2.1}
{"COMPOUND": "CN1CCN(C(=O)c2c(-c3ccccc3)c3cc([N+](=O)[O-])ccc3n2C)CC1 [KML110]", "SILAC ratio, Sccpdh": 2.6}

###

Biological target: AEA-DA lipid probe targets in Neuro2a cells (Mus musculus, UniProt Q0VGU4)
Sequence (Q0VGU4 24-617): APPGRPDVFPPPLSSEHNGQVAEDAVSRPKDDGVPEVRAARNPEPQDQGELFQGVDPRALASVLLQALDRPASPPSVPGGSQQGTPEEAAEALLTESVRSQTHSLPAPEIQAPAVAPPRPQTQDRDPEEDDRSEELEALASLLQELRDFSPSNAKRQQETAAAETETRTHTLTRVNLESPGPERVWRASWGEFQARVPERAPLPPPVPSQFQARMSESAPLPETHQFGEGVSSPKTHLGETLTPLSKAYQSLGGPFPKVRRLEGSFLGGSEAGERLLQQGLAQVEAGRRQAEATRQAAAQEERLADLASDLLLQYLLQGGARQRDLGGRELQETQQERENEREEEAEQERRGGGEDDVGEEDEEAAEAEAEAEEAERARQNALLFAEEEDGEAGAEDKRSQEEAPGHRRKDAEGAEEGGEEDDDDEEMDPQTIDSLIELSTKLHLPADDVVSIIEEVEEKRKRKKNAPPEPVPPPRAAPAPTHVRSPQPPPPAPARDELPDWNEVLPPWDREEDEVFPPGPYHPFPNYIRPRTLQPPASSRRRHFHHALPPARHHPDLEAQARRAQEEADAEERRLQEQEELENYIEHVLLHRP
Settings: competitor 25 μM
EXPERIMENTAL_ENDPOINT: SILAC ratio, Vgf

{"MOLECULE": "CN1CCN(C(=O)c2c(-c3ccccc3)c3cc([N+](=O)[O-])ccc3n2C)CC1", "EXPERIMENTAL_ENDPOINT": "SILAC ratio, Vgf", "RESULT_VALUE": 1.4}
{"MOLECULE": "CN1CCN(C(=O)c2[nH]c3ccc([N+](=O)[O-])cc3c2-c2ccccc2)CC1", "EXPERIMENTAL_ENDPOINT": "SILAC ratio, Vgf", "RESULT_VALUE": 1.3}
{"MOLECULE": "O=C(/C=C/c1cccnc1)NCCCCC1CCN(C(=O)c2ccccc2)CC1 [FK-866, reference compound]", "EXPERIMENTAL_ENDPOINT": "SILAC ratio, Vgf", "RESULT_VALUE": 1.1}
{"MOLECULE": "C=CCN(C)CCCCCCOc1ccc(C(=O)c2ccc(Br)cc2)c(F)c1 [Ro 48-8071, reference compound]", "EXPERIMENTAL_ENDPOINT": "SILAC ratio, Vgf", "RESULT_VALUE": 0.9}

###

Target: AEA-DA lipid probe targets in Neuro2a cells (Mus musculus)
Conditions: competitor 25 μM
EXPERIMENTAL_ENDPOINT: SILAC ratio, Gstm1

{"COMPOUND": "C=CCN(C)CCCCCCOc1ccc(C(=O)c2ccc(Br)cc2)c(F)c1 [Ro 48-8071, reference compound]", "EXPERIMENTAL_ENDPOINT": "SILAC ratio, Gstm1", "RESULT_VALUE": 1.4}
{"COMPOUND": "CN1CCN(C(=O)c2[nH]c3ccc([N+](=O)[O-])cc3c2-c2ccccc2)CC1", "EXPERIMENTAL_ENDPOINT": "SILAC ratio, Gstm1", "RESULT_VALUE": 1.7}
{"COMPOUND": "CN1CCN(C(=O)c2c(-c3ccccc3)c3cc([N+](=O)[O-])ccc3n2C)CC1", "EXPERIMENTAL_ENDPOINT": "SILAC ratio, Gstm1", "RESULT_VALUE": 2.2}
{"COMPOUND": "O=C(/C=C/c1cccnc1)NCCCCC1CCN(C(=O)c2ccccc2)CC1 [FK-866, reference compound]", "EXPERIMENTAL_ENDPOINT": "SILAC ratio, Gstm1", "RESULT_VALUE": 1.5}
